experiment: Rodent pharmacokinetics: oral bioavailability and clearance, plasma PK; assay type: in vivo, mouse; settings: male, mouse, in vivo, iv
quantity measured: clearance (mL/min/kg)

{"compound": "c1cc(-c2nc(N3CCOCC3)c3oc4ncc(CN5C[C@@H]6C[C@H]5CO6)cc4c3n2)c2cc[nH]c2c1 [Example A]", "quantity measured": "clearance", "readout number": 21}

###

experiment: Rodent pharmacokinetics: oral bioavailability and clearance, plasma PK; type: in vivo, mouse; details: male, mouse, in vivo; summary table, mice, mesylate salts; read-out: Clearance

{"molecule": "c1cc(-c2nc(N3CCOCC3)c3oc4ncc(CN5CCC6(CC5)COC6)cc4c3n2)c2cc[nH]c2c1 [Example B]", "clearance, mL/min/kg": 33}

###

test system: p110β/p110α; experiment: HTRF biochemical assay, class I PI3K isoforms (Reaction Biology Corp.): fold selectivity p110β/p110α; conditions: fold form selectivity

{"compound": "c1cc(-c2nc(N3CCOCC3)c3oc4ncc(CN5CCC6(CC5)COC6)cc4c3n2)c2cc[nH]c2c1", "Fold IC50 p110β/p110α": "** (** = >50×)"}
{"compound": "CN1CCC2(CCN(Cc3cnc4oc5c(N6CCOCC6)nc(-c6cccc7[nH]ccc67)nc5c4c3)C2)C1 (centres unmarked)", "Fold IC50 p110β/p110α": "** (** = >50×)"}
{"compound": "c1cc(-c2nc(N3CCOCC3)c3oc4ncc(CN5CC6CC[C@H](C5)O6)cc4c3n2)c2cc[nH]c2c1 (stereo in doubt)", "Fold IC50 p110β/p110α": "* (* = ≥10× ≥ 50×)"}
{"compound": "CN1CCC2(CCN(Cc3cnc4oc5c(N6CCOCC6)nc(-c6cccc7[nH]ccc67)nc5c4c3)CC2)C1", "Fold IC50 p110β/p110α": "** (** = >50×)"}
{"compound": "c1cc(-c2nc(N3CCOCC3)c3oc4ncc(CN5CCC56COC6)cc4c3n2)c2cc[nH]c2c1", "Fold IC50 p110β/p110α": "* (* = ≥10× ≥ 50×)"}
